Tested on: Wnt5a (protein binding on small-molecule microarray)
protocol_summary: Wnt5a binders on small-molecule microarray, primary screen, biophysical, 635/667 nm fluorescence (AID 1142);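 also: fluorescence read at 667 nm with signal to noise per printed feature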
setup_conditions: 635 nm fluorescence, higher = more signal
We'd kindly ask you to apply these composite z-score classes: one = under 0.08, two = from 0.08 up to 0.2, three = 0.2 and over

| compound | assigned_class |
| --- | --- |
| O=C1CCCC=C1C(O)COCc1ccccc1 (stereo unspecified) | two |
| CC(CCN1CCc2nc(-c3ccccc3)c(-c3ccccc3)cc2C1)=NOC(C)CN1CCCc2nc(C)c(C)cc21 (stereo unspecified) | three |
| Cc1ccc(C(C)C)n1C(=O)OC(C)(C)C | three |
| CC(CCN1CCCCc2nc(C)c(C)cc21)=NO[C@H](C)c1cn([C@@H]2COC[C@H]2O)nn1 | three |
| CCOC(=O)[C@H](Cc1ccccc1)NC(=O)CCC1CC(OC(=O)NCc2cccc3ccccc23)CC2(CCCC(COC(=O)NCC3CCCCC3)O2)O1 (stereo partly specified) | three |
| O=C1C2=CC[C@H]3C(=O)N(Cc4ccccc4)C(=O)[C@H]3[C@H]2[C@H](O)[C@@H]2O[C@H]12 | one |
| CC(C)CON=C1[C@H]2CCn3c(=O)n(C)c(=O)n3[C@H]2[C@H](O)[C@@H]2O[C@H]12 | one |
| CC(CCC(=O)OC[C@H]1O[C@H](C#Cc2ccccc2)C=C[C@@H]1Oc1ccc(C)cc1)=NO[C@@H](C)c1cc(-c2c(C)cc(C)cc2C)no1 | one |
| CCOC(=O)CCN1C(=O)[C@H]2[C@H]3[C@H](O)[C@H](O)CC(=NOCC=C(C)CCC=C(C)C)[C@H]3CC[C@H]2C1=O | two |
| COC(=O)[C@H](Cc1ccccc1)NC(=O)[C@@H](C)CO | three |
| COC(=O)[C@H](C)NC(=O)CCC1CC(OC(=O)NCc2cccc3ccccc23)CC2(CCCC(COC(=O)NCCC(C)C)O2)O1 (stereo partly specified) | two |
| O=C1[C@H]2[C@H]3[C@H](O)[C@H](O)CC(=NO[C@@H]4O[C@H](CO)[C@@H](O)[C@H](O)[C@H]4O)[C@H]3CC[C@H]2C(=O)N1C[C@@H]1CCCO1 | two |
| C[C@H]1CC[C@@H](C(=O)O)N[C@@H]1c1cccc(N2CCCC2=O)c1 | one |
| COc1ccc(COC(=O)NN=C2C[C@@H](O)[C@@H](O)[C@@H]3[C@@H]4C(=O)N(c5cccc(Oc6ccccc6)c5)C(=O)[C@@H]4CC[C@H]23)cc1 | one |
| CC(CCC(=O)OC[C@H]1O[C@H](C#Cc2ccccc2)C=C[C@@H]1Oc1ccc(C)cc1)=NOC[C@@H](C)[C@H](OCc1ccccc1)C(C)C | one |
